- TARGET_OR_SYSTEM: human CSNK1A1 (Homo sapiens (Human))
- Sequence (P48729 whole entry): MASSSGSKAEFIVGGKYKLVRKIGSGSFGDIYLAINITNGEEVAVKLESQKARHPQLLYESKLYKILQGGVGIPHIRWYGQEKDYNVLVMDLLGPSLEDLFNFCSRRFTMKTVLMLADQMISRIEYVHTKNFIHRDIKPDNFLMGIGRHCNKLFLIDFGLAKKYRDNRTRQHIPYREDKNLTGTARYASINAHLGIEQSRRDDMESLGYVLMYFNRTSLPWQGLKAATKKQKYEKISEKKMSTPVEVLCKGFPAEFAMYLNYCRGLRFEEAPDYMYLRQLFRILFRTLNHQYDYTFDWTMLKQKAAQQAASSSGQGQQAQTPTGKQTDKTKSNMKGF
- ASSAY_PROCEDURE: CSNK1A1 High ATP Assay (ADP-Glo, 1 mM ATP)
- Assay type: biochemical
- DETAILS: read-out: CSNK1A1 high ATP assay IC50 [mol/l] (median)
ENDPOINT_LABEL: log10(IC50) (log10 of the value in nM)
Parameter value (number): base-10 log of IC50 in nM.

Recorded results for 3 molecules are shown here.
MOLECULE	ENDPOINT_VALUE
CC1(C)Cc2[nH]c(-c3ccnc(NC(=O)C(CC(F)F)c4ccc(F)cc4)c3)c(Nc3cccc(F)n3)c2C(=O)N1 (racemic) [Example 128]	1.50
O=C(Cc1ccc(F)cc1)Nc1cc(-c2[nH]c3c(c2Nc2ccccc2)C(=O)NC2(CC2)C3)ccn1	0.70
CN1CCc2[nH]c(-c3ccnc(NC(=O)Cc4c(F)cc(F)cc4F)c3)c(Nc3ccccc3)c2C1=O	2.17

INPUT: Look up log10(IC50): Cc1ccc(CC(=O)Nc2cc(-c3[nH]c4c(c3Nc3ccccc3)C(=O)N(C)CC4)ccn2)cc1
OUTPUT: 1.87

INPUT: Next up: O=C1NC2(CC2)Cc2[nH]c(-c3ccnc(NC(=O)C(CC(F)F)c4ccc(F)cc4)c3)c(Nc3ccccc3)c21 (racemic) [Example 147]
OUTPUT: 1.28

INPUT: Next up: Cc1ccccc1Nc1c(-c2ccnc(NC(=O)C(CC(F)F)c3ccc(F)cc3)c2)[nH]c2c1C(=O)NC(C)(C)C2 (racemic) [Example 135]
OUTPUT: 2.56

INPUT: Next up: CN1CCc2[nH]c(-c3ccnc(NC(=O)C(CC(F)F)c4ccccc4)c3)c(Nc3ccccc3)c2C1=O (single isomer, unassigned) [Example 34]
OUTPUT: 1.22

INPUT: Next up: CC(C(=O)Nc1cc(-c2[nH]c3c(c2Nc2ccccc2)C(=O)N(C)CC3)ccn1)c1ccncc1 (single isomer, unassigned; (+)) [Example 73]
OUTPUT: 1.80

INPUT: Next up: CCN1CCc2[nH]c(-c3ccnc(NC(=O)Cc4ccc(F)cc4)c3)c(Nc3ccccc3)c2C1=O
OUTPUT: 3.30

INPUT: Next up: Cc1ccccc1Nc1c(-c2ccnc(NC(=O)C(CC(F)F)c3ccc(F)cc3)c2)[nH]c2c1C(=O)NC1(CCC1)C2 (single isomer, unassigned; enantiomer 2) [Example 145]
OUTPUT: 1.17

INPUT: Next up: CC(C(=O)Nc1cc(-c2[nH]c3c(c2Nc2ccccc2)C(=O)N(C)C(C)C3)ccn1)c1ccc(F)cc1 (single isomer, unassigned; (-)) [Example 95]
OUTPUT: 3.39

INPUT: Next up: COCCN1CCc2[nH]c(-c3ccnc(NC(=O)Cc4ccc(F)cc4)c3)c(Nc3ccccc3)c2C1=O
OUTPUT: 2.96

* * *

Reported IC50 values are given for each entry in this list.
- TARGET_OR_SYSTEM: wild-type Epidermal Growth Factor Receptor (EGFR) (Homo sapiens (Human), UniProt P00533)
- Sequence (P00533 669-1210): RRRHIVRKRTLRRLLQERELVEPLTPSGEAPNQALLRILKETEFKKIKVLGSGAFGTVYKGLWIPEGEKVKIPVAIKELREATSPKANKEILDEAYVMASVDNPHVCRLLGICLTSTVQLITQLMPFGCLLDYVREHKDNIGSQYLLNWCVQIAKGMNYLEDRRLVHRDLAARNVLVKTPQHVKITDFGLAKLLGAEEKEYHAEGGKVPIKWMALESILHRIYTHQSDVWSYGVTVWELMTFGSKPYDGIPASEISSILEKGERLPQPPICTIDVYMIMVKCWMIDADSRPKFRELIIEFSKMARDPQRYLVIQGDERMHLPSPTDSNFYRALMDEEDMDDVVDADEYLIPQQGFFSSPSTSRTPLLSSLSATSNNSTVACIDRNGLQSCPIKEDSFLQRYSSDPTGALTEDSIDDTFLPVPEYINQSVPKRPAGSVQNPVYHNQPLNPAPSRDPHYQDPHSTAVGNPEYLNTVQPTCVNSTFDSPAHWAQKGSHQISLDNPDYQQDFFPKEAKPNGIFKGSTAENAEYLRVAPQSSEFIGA
- ASSAY_PROCEDURE: WT-EGFR Kinase Assay (TR-FRET, 2 mM ATP)
- Format: biochemical
- DETAILS: read-out: EGFR Wildtyp- 2 mM ATP IC50 [mol/l] (median)
Supply the numeric figure in nM, leaving out any unit text.

INPUT: Look up IC50: CN1CCc2[nH]c(-c3ccnc(NC(=O)Cc4ccc(S(C)(=O)=O)cc4)c3)c(Nc3ccccc3)c2C1=O
OUTPUT: 490

INPUT: Next up: O=C(Cc1ccc(F)cc1)Nc1cc(-c2[nH]c3c(c2Nc2ccccc2)C(=O)N(C2CC2)CC3)ccn1
OUTPUT: 2740

INPUT: Next up: Cc1cc(CC(=O)Nc2cc(-c3[nH]c4c(c3Nc3ccccc3)C(=O)N(C)CC4)ccn2)ccc1F
OUTPUT: 2130

INPUT: Next up: CN1CCc2[nH]c(-c3ccnc(NC(=O)Cc4ccccn4)c3)c(Nc3ccccc3)c2C1=O
OUTPUT: 3670

INPUT: Next up: O=C(Cc1ccc(F)cc1)Nc1cc(-c2[nH]c3c(c2Nc2ccccc2Cl)C(=O)NCC3)ccn1
OUTPUT: 1050

INPUT: Next up: CN(C)CCNC(=O)c1ccc(CC(=O)Nc2cc(-c3[nH]c4c(c3Nc3ccccc3)C(=O)N(C)CC4)ccn2)cc1
OUTPUT: 476

* * *

- TARGET_OR_SYSTEM: UniProt P48729
- ASSAY_PROCEDURE: CSNK1A1 High ATP Assay (ADP-Glo, 1 mM ATP)
- Assay type: biochemical
- DETAILS: read-out: CSNK1A1 high ATP assay IC50 [mol/l] (median)
ENDPOINT_LABEL: pIC50
Convention used: pIC50 is expressed as -log10 of the molar concentration.

MOLECULE	TARGET_OR_SYSTEM	ENDPOINT_VALUE
O=C(Cc1ccc(F)cc1)Nc1cc(-c2[nH]c3c(c2Nc2ccccc2)C(=O)NC2(CCC2)C3)ccn1	UniProt P48729	7.99
CN1C(=O)c2c([nH]c(-c3ccnc(NC(=O)C(CC(F)F)c4ccc(F)cc4)c3)c2Nc2ccccc2F)CC1(C)C (racemic) [Example 45]	UniProt P48729	6.56
CN1CCc2[nH]c(-c3ccnc(NC(=O)Cc4cnccn4)c3)c(Nc3ccccc3)c2C1=O	UniProt P48729	6.64

INPUT: Look up pIC50: CN1CCc2[nH]c(-c3ccnc(NC(=O)Cc4ccc(C(F)F)cc4)c3)c(Nc3ccccc3)c2C1=O
OUTPUT: 7.02

* * *

The following are reported pIC50 results, target or system UniProtKB P48730.
Sequence (P48730 whole entry): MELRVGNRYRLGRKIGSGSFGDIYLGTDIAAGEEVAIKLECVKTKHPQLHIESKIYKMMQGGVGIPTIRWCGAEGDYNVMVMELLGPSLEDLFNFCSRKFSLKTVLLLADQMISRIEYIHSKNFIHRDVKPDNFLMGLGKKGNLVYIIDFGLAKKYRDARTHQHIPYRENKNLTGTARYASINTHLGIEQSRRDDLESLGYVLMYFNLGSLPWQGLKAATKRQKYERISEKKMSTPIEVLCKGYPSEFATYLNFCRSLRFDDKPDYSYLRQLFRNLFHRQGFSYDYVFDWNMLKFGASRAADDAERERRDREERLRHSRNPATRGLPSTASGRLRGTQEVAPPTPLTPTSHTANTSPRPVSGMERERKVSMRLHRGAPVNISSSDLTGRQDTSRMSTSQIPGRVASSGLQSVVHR
Convention used: pIC50 is expressed as -log10 of the molar concentration.

MOLECULE	TARGET_OR_SYSTEM	pIC50
CC1Cc2[nH]c(-c3ccnc(NC(=O)Cc4ccc(F)cc4)c3)c(Nc3ccccc3)c2C(=O)N1C (single isomer, unassigned; (+)) [Example 89]	UniProtKB P48730	8.24

INPUT: Look up pIC50: CC(C(=O)Nc1cc(-c2[nH]c3c(c2Nc2ccccc2)C(=O)N(C)CC3)ccn1)c1ccncc1 (racemic) [Example 72]
OUTPUT: 8.22

INPUT: Next up: CC1Cc2[nH]c(-c3ccnc(NC(=O)Cc4ccc(F)cc4)c3)c(Nc3ccccc3)c2C(=O)N1C (racemic) [Example 88]
OUTPUT: 8.29

* * *

Reported IC50 values are given for each entry in this list.
- TARGET_OR_SYSTEM: wild-type Epidermal Growth Factor Receptor (EGFR) (Homo sapiens (Human), UniProt P00533)
- ASSAY_PROCEDURE: WT-EGFR Kinase Assay (TR-FRET, 2 mM ATP)
- Type: biochemical
- DETAILS: EGFR Wildtyp- 2 mM ATP IC50 [mol/l] (median)

Recorded results for 5 compounds are shown here.
COMPOUND	ENDPOINT_LABEL	ENDPOINT_VALUE
O=C1NC2(CC2)Cc2[nH]c(-c3ccnc(NC(=O)C(CC(F)F)c4ccc(F)cc4)c3)c(Nc3ccccc3)c21 (single isomer, unassigned; enantiomer 2) [Example 149]	IC50	16.7 µM
CC1(C)Cc2[nH]c(-c3ccnc(NC(=O)C(CC(F)F)c4ccc(F)cc4)c3)c(Nc3cccc(F)c3)c2C(=O)N1 (single isomer, unassigned; enantiomer 1)	IC50	> 20 µM
CC1Cc2[nH]c(-c3ccnc(NC(=O)Cc4ccc(F)cc4)c3)c(Nc3ccccc3)c2C(=O)N1C (racemic) [Example 88]	IC50	0.727 µM
CC1(C)Cc2[nH]c(-c3ccnc(NC(=O)C(CC(F)F)c4ccc(F)cc4)c3)c(Nc3cccc(F)n3)c2C(=O)N1 (racemic) [Example 128]	IC50	> 20 µM
CN1CCc2[nH]c(-c3ccnc(NC(=O)C(CC(F)F)c4ccc(F)cc4)c3)c(Nc3ccccc3)c2C1=O (racemic) [Example 61]	IC50	8.02 µM

Please find the next compound below.
INPUT: Look up IC50: Cc1ccccc1Nc1c(-c2ccnc(NC(=O)C(CC(F)F)c3ccc(F)cc3)c2)[nH]c2c1C(=O)NC(C)(C)C2 (single isomer, unassigned; enantiomer 1) [Example 136]
OUTPUT: > 20 µM

* * *

- TARGET_OR_SYSTEM: UniProtKB P48729
- ASSAY_PROCEDURE: CSNK1A1 Assay 1 (ADP-Glo, 1 μM ATP)
- Format: biochemical
- DETAILS: substrate Btn-Ahx-SGSEGDSESGEEEG, read-out: CSNK1A1 Assay 1 IC50 [mol/l] (median)
API: label(entry) gives fulfilled if the entry's IC50 is strictly smaller than 3 nM; on equality or larger values it gives not fulfilled.

INPUT: Lab log: compare recorded IC50 with 3 nM; is it strictly lower for CN1CCc2[nH]c(-c3ccnc(NC(=O)Cc4ccccc4)c3)c(Nc3ccccc3)c2C1=O ?
OUTPUT: not fulfilled

INPUT: Next up: CN1CCc2[nH]c(-c3ccnc(NC(=O)Cc4ccc(F)cc4)c3)c(Nc3ccccn3)c2C1=O
OUTPUT: fulfilled

INPUT: Next up: CN1CCc2[nH]c(-c3ccnc(NC(=O)Cc4ccc(F)cc4)c3)c(Nc3ccccc3)c2C1=O
OUTPUT: fulfilled

INPUT: Next up: CC(C(=O)Nc1cc(-c2[nH]c3c(c2Nc2ccccc2)C(=O)N(C)CC3)ccn1)c1ccc(F)cc1 (centres unmarked)
OUTPUT: not fulfilled

INPUT: Next up: Cc1cc(CC(=O)Nc2cc(-c3[nH]c4c(c3Nc3ccccc3)C(=O)N(C)CC4)ccn2)ccc1F
OUTPUT: not fulfilled

Values from patent US12227501B2
